List of EC50 values.
- assayed target: SARS-COV-2 RBD (SARS-COV-2, UniProt P0DTC2 319-539)
- assay details: ELISA, RBD coated
quantity kind: EC50 (ng/mL)

• C058 (antibody, V domains shown) VH: QVQLVQSGAEVKKPGASVKVSCKASGYIFTDYSMHWVRQAPGQGLEWIGWVNPNSGGTNYAQKFQGWVTMARDTSITTVYMELSRLKSDDTAVYFCARGPLFHRLVYDFWSGYHDGFDMWGQGTMVTVSS VL: QSALTQPASVSGSPGQSITISCTGTSSDVGGYKFVSWYQQHPGKAPKLMIYEVSNRPSGVSNRFSGSKSGNTASLTISGLQAEDEADYYCNSYTSSSTWVFGGGTKLTVL = 2.28
• C518 (antibody, V domains shown) VH: EVQLVESGGGLIQPGGSLRLSCAASGITVSSNYMSWVRQAPGKGLEWVSVMYAGGSSFYADSVKGRFTISRDNSKNTLYLQMNSLRVEDTAVYYCARDLIALGVDVWGQGTTVTVSS VL: DIQLTQSPSFLSASVGDRVTITCRASQGISSYLAWYQQKPGKAPKLLIYAASTLQSGVPSRFSGSGSGTEFTLTISSLQPEDFATYYCQLLNSYPMCSFGQGTKLEIK = 1.13
• C080 (antibody, V domains shown) VH: EVQLVQSGAEVKKPGESLNISCKASGYSFTIYWIAWVRQLPGKGLEWMGIIYPGDSDTRYSPSFQGQVTISADKSISTAYLQWRSLKASDSAVYYCARGVAVDWYFDLWGRGTLVTVSS VL: QSVLTQPPSVSGAPGQRVTISCAGSSSNIGAGFDVYWYQQLPGTAPKLLIYGNNNRPSGVPDRFSGSKSGTSASLAITGLQAEDEADYYCQSSGSVLSDLYVFGTGTKVTVL = 1.97
